Reported pKi is given for each of the following compounds.
# TARGET UNDER TEST: Aurora-2 (Aurora A) (Homo sapiens)
# Sequence (O14965 1-403): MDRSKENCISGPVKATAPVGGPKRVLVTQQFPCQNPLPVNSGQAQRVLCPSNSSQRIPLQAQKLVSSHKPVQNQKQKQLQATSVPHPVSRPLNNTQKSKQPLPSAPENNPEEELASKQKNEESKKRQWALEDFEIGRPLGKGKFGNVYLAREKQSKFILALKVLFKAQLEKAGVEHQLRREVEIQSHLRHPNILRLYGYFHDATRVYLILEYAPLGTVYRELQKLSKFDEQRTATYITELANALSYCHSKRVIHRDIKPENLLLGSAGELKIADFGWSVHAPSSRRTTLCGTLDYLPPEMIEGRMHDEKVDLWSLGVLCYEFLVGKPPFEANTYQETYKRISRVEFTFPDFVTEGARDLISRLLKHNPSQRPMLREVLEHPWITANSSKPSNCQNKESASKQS
# PROTOCOL SUMMARY: Aurora-2 (Aurora A) inhibition assay, coupled enzyme
# Type: biochemical
# ASSAY SETUP: read-out: Aurora A kinase Ki value
pKi: −log10 of the molar value.

| COMPOUND | pKi |
| --- | --- |
| Cc1cc(Nc2cc(N3CC(C)(F)C3)nc(Sc3ccc(NC(=O)CC(F)(F)F)cc3)n2)n[nH]1 [Compound 168] | ≥ 9.00 |
| Cc1cnc(Nc2cc(N3CC(N)C3)nc(Sc3ccc(NC(=O)C4CC4)cc3)n2)s1 [Compound 2] | 6.70 to 8.30 |
| CCN(C)C(=O)c1ccc(Sc2nc(Nc3cc(C)[nH]n3)cc(N3CC(O)(C4CC4)C3)n2)cc1 [Compound 125] | 8.30 to 9.00 |
| CCC(=O)Nc1ccc(Sc2nc(CCN3CCC3)cc(Nc3cc(C)n[nH]3)n2)cc1 [Compound 197] | 6.70 to 8.30 |

* * *

# TARGET UNDER TEST: Aurora-2 (Aurora A) (Homo sapiens)
# Sequence (O14965 1-403): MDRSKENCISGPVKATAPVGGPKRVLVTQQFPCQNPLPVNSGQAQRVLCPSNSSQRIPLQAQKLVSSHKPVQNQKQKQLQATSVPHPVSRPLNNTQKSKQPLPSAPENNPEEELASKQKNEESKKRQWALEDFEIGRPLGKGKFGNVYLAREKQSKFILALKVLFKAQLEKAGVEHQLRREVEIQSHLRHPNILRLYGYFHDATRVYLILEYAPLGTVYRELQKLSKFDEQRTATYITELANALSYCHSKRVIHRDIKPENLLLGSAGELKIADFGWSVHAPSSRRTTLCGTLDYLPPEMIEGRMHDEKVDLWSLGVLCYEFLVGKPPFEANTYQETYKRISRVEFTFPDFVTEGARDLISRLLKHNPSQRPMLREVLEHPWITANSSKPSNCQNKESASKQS
# PROTOCOL SUMMARY: Aurora-2 (Aurora A) inhibition assay, coupled enzyme
# Format: biochemical
# ASSAY SETUP: read-out: Aurora A kinase Ki value
Reported Ki is given for each of the following molecules.
ENDPOINT NAME: Ki

| SMILES STR | VALUE MEASURED |
| --- | --- |
| Cc1cc(Nc2cc(N3CCC3)nc(Sc3ccc(NC(=O)c4ccc(Oc5ccccc5)cc4Cl)cc3)n2)[nH]n1 | ≤ 1 nM |
| Cc1cc(Nc2cc(N3CCC3)nc(Sc3ccc(C(=O)NC4CCCC4)cc3)n2)n[nH]1 | 5 to 200 nM |
| Cc1cc(Nc2cc(N3CC(F)(C4CC4)C3)nc(Sc3ccc(NC(=O)CN(C)C)cc3)n2)[nH]n1 | ≤ 1 nM |
| Cc1cc(Nc2cc(N3CCC3)nc(Sc3ccc(NC(=O)c4ccccc4N(C)C)cc3)n2)[nH]n1 | 5 to 200 nM |

* * *

Reported Ki is given for each of the following molecules.
# TARGET UNDER TEST: Aurora-2 (Aurora A) (Homo sapiens)
# PROTOCOL SUMMARY: Aurora-2 (Aurora A) inhibition assay, coupled enzyme
# Type: biochemical
# ASSAY SETUP: read-out: Aurora A kinase Ki value
ENDPOINT NAME: Ki

| MOLECULE | TARGET UNDER TEST | VALUE MEASURED |
| --- | --- | --- |
| Cc1cc(Nc2cc(N3CC(F)(C4CC4)C3)nc(Sc3cnc4ccccc4c3)n2)[nH]n1 [Compound 206] | Aurora-2 (Aurora A) (Homo sapiens) | ≤ 1 nM |
| CCC(=O)Nc1ccc(Sc2nc(Nc3cc(C)n[nH]3)cc(N3CC(C)(OC(C)C)C3)n2)cc1 [Compound 95] | Aurora-2 (Aurora A) (Homo sapiens) | 1 to 5 nM |
| CCC(=O)Nc1ccc(Sc2nc(Nc3cc(C)n[nH]3)cc(N3CC(C)(O)C3)n2)cc1 [Compound 71] | Aurora-2 (Aurora A) (Homo sapiens) | 1 to 5 nM |
| Cc1cc(Nc2cc(N3CCC3)nc(Sc3ccc(N)cc3)n2)[nH]n1 [Compound 108] | Aurora-2 (Aurora A) (Homo sapiens) | 5 to 200 nM |
| Cc1cc(Nc2cc(N3CCC3)nc(Sc3ccc(NC(=O)C(C)(C)C)cc3)n2)[nH]n1 [Compound 114] | Aurora-2 (Aurora A) (Homo sapiens) | 1 to 5 nM |
| COC(=O)c1ccc(Sc2nc(Nc3cc(C4CC4)[nH]n3)cc(N3CC(O)(C4CC4)C3)n2)cc1 [Compound 106] | Aurora-2 (Aurora A) (Homo sapiens) | ≤ 1 nM |
| Cc1cc(Nc2cc(N3CCC3)nc(Sc3ccc(NC(=O)c4nccn4C)cc3)n2)n[nH]1 [Compound 166] | Aurora-2 (Aurora A) (Homo sapiens) | 5 to 200 nM |
| CCC(=O)Nc1ccc(Sc2nc(Nc3cc(C)n[nH]3)cc(N3CC4(C3)OCC4(C)C)n2)cc1 [Compound 92] | Aurora-2 (Aurora A) (Homo sapiens) | ≤ 1 nM |

* * *

# TARGET UNDER TEST: FLT-3 (Homo sapiens)
# Sequence (P36888 27-993, species assumed): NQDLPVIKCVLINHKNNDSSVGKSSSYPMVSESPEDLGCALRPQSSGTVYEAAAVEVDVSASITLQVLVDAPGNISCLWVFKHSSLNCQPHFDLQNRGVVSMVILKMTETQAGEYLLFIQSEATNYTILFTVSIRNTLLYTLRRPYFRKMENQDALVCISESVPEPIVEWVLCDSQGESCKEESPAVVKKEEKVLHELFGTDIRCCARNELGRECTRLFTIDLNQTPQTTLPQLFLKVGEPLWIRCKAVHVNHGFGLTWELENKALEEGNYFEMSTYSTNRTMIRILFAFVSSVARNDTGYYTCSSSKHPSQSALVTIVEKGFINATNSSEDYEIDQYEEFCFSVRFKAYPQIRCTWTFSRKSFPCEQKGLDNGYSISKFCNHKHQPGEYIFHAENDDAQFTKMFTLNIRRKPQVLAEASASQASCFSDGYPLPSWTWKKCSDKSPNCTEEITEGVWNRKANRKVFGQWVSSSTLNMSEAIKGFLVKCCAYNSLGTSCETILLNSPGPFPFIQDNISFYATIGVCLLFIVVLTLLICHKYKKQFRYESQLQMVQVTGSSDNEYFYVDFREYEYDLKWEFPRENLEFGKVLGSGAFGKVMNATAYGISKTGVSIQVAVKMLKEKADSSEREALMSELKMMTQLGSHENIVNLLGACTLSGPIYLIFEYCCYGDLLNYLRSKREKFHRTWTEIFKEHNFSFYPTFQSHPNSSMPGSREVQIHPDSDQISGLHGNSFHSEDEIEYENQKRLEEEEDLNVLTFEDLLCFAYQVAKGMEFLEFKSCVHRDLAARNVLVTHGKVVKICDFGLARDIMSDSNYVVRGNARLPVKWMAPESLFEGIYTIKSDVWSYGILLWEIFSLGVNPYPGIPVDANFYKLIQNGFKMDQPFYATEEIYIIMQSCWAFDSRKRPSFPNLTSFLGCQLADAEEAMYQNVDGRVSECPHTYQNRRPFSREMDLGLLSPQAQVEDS
# PROTOCOL SUMMARY: FLT-3 inhibition assay, radiometric filter-binding
# Type: biochemical
# Procedure: This assay monitors the 33P incorporation into a substrate poly(Glu, Tyr) 4:1 (pE4Y). […] Final substrate concentrations in the assay were 90 μM ATP and 0.5 mg/ml pE4Y (both from Sigma Chemicals, St. Louis, Mo.). […] Reactions were carried out at room temperature. Two assay solutions were prepared. […] The amount of ^33P incorporation into pE4y was analyzed by a Packard Top Count Microplate Scintillation Counter (Meriden, Conn.). […]

| COMPOUND | TARGET UNDER TEST | Ki |
| --- | --- | --- |
| Cc1cc(Nc2cc(N3CCC3)nc(Sc3ccc(C(=O)NCc4ccccc4)cc3)n2)n[nH]1 [Compound 19] | FLT-3 (Homo sapiens) | 150 to 1000 nM |
| Cc1cc(Nc2cc(N3CC(F)(C4CC4)C3)nc(Sc3ccc(N)cc3)n2)[nH]n1 [Compound 209] | FLT-3 (Homo sapiens) | ≤ 50 nM |
| Cc1cc(Nc2cc(N3CC(N4CCOCC4)C3)nc(Sc3ccc4nc(C(F)(F)F)n(C)c4c3)n2)[nH]n1 [Compound 195] | FLT-3 (Homo sapiens) | 150 to 1000 nM |
| CCC(=O)Nc1ccc(Sc2nc(C#CC(C)(C)N3CCC3)cc(Nc3cc(C)n[nH]3)n2)cc1 [Compound 77] | FLT-3 (Homo sapiens) | 150 to 1000 nM |
| CCC(=O)Nc1ccc(Sc2nc(Nc3cc(C)n[nH]3)cc(N3CC(C)(OC(C)C)C3)n2)cc1 [Compound 95] | FLT-3 (Homo sapiens) | 50 to 150 nM |
| Cc1cc(Nc2cc(N3CCC3)nc(Sc3ccc(NC(=O)c4ccc(Cl)cc4Cl)cc3)n2)n[nH]1 [Compound 162] | FLT-3 (Homo sapiens) | 150 to 1000 nM |
| Cc1cc(Nc2cc(N3CC(N4CCCC4)C3)nc(Sc3ccc(NC(=O)CC(F)(F)F)cc3)n2)[nH]n1 [Compound 204] | FLT-3 (Homo sapiens) | 50 to 150 nM |
| COCc1cc(Nc2cc(N3CCC3)nc(Sc3ccc(NC(=O)c4ccccc4Cl)cc3)n2)n[nH]1 [Compound 82] | FLT-3 (Homo sapiens) | 150 to 1000 nM |
| CCC(=O)Nc1ccc(Sc2nc(Nc3cc(C4CC4)n[nH]3)cc(N3CC(C)(O)C3)n2)cc1 [Compound 76] | FLT-3 (Homo sapiens) | ≤ 50 nM |
| Cc1ccc2cc(Sc3nc(Nc4cc(C)[nH]n4)cc(N4CC(N5CCCC5)C4)n3)ccc2n1 [Compound 182] | FLT-3 (Homo sapiens) | 50 to 150 nM |
| Cc1cc(Nc2cc(N3CC(F)(C4CC4)C3)nc(Sc3ccc(C(=O)NCC(F)(F)F)cc3)n2)[nH]n1 [Compound 205] | FLT-3 (Homo sapiens) | 50 to 150 nM |
| CC1=NN=C(Nc2cc(N3CCC3)nc(Sc3ccc(NC(=O)c4cccc(C(F)(F)F)c4F)cc3)n2)C1 [Compound 55] | FLT-3 (Homo sapiens) | 150 to 1000 nM |
| Cc1cc(Nc2cc(N3CCC3)nc(Sc3ccc(NC(=O)c4ccc(Cl)cc4)cc3)n2)n[nH]1 [Compound 54] | FLT-3 (Homo sapiens) | 150 to 1000 nM |
| CCNC(=O)c1ccc(Sc2nc(Nc3cc(C)[nH]n3)cc(N3CCC3)n2)cc1 [Compound 20] | FLT-3 (Homo sapiens) | 50 to 150 nM |
| Cc1cc(Nc2cc(N3CCC3)nc(Sc3ccc(NC(=O)c4ccc(F)cc4F)cc3)n2)n[nH]1 [Compound 44] | FLT-3 (Homo sapiens) | 150 to 1000 nM |
| Cc1cnc(Nc2cc(N3CCC3)nc(Sc3ccc(NC(=O)C4CC4)cc3)n2)s1 [Compound 4] | FLT-3 (Homo sapiens) | 50 to 150 nM |

Source of measurements: patent US8637511B2
